Tested on: SNB-75 CNS
experiment_notes: NCI tumour cell line growth inhibition, 48 h
observed_property: log10 of TGI (log10 of the value in µM)
Recall that a logarithmic scale is used here: each number is log10 of TGI in µM.

- compound: "CCC1=C(C)/C(=C/c2[nH]c(C(Br)Br)c(CC)c2C)N=C1C(Br)Br"
  log10 of TGI: 1.96
- compound: "O=C(/C=C/C12c3ccccc3C(c3ccccc31)C1C(=O)N(c3ccccc3)C(=O)C12)c1ccc(Cl)cc1 (stereo not given)"
  log10 of TGI: 0.83
- compound: "Cc1ccc(C2CC(c3ccc([N+](=O)[O-])cc3)=Nc3ccccc3S2)cc1 (stereo not given)"
  log10 of TGI: 1.91
- compound: "CCN(CC)CCNc1ccc2ncn3c4c(OC)ccc(OC)c4c(=O)c1c23"
  log10 of TGI: 1.37
- compound: "COc1ccc(-c2cnoc2-c2ccc(OC)c(OC)c2)cc1OC"
  log10 of TGI: 0.81
- compound: "COc1cc(/C=N/Nc2ncnc3c2cnn3C(C)C)ccc1O"
  log10 of TGI: 0.98

Turning to the following compound.
[Q] Find the recorded log10 of TGI belonging to N#CC(C#N)=Cc1c(-c2ccccc2)[nH]c2ccccc12 and report it.
[A] 1.16

Source of measurements: PubChem BioAssay (NCI)
